Listing: interaction score of selected binders
Target: T1, P9bHq
T1 chain: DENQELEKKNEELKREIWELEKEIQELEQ
Test: two-hybrid library CCNG1;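 further: natural log of median RNA to DNA barcode read ratio; higher means stronger binding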
quantityName: interaction score

1. DKNQELKKEIEELERENWELEKKIQELKQ [P6bHq] :: -0.205
2. DENQELEKEIEELEREIWELEKKNQELKQ [P11bHq] :: 0.854
3. DEIQELEKEIEELERKNWELKKKNQELKQ [P3bHq] :: -0.595
4. DENQELEKKNEELKREIWELEKEIQELEQ [P9bHq] :: -0.654
5. DENQELEKKIEELKRKNWELKKEIQELEQ [P5bHq] :: -0.517
